B1: CPEB3 Ribozyme (parent)
chain: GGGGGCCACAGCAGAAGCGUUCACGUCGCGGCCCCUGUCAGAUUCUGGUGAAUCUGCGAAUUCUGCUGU

# Variants of: B1
# method.notes: self-cleavage, relative activity (ratio to wild type); higher = more cleavage; co-transcriptional
Mark 1 (yes) for reported self-cleavage of 0.3 or greater; mark 0 (no) for anything smaller.

Query: Threshold query (self-cleavage >= 0.3) on "GGGGGCCACAGGAGAAGCGUUCACGUCGCGGCCCCUGUCAGAUUCUGGUGAAUCUGCGAAUUCGGCUGU"
Response: 1 (yes)

Query: State whether the measured self-cleavage reaches 0.3, counting equality as reaching it, for "GGUGGCCACAGCAGAAGCGUUCACGUCGCGGCCCCUGUCAGAUUCUGGUGAAUCUGCGAAUCCUGCUGU"
Response: 0 (no)

Query: Form field: self-cleavage at least 0.3? Entry: "GGGGGCCACAGCAGAAGCGAUCACGUCGCGGCGCCUGUCAGAUUCUGGUGAAUCUGCGAAUUCUGCUGU"
Response: 0 (no)

Query: Is self-cleavage for "GGGGGCCACAGCCGAAGCGUUCACGUCGCGGCCCCUGUCGGAUUCUGGUGAAUCUGCGAAUUCUGCUGU" at or above 0.3?
Response: 1 (yes)

Query: Is it the case that "GGGGGCCACAGCAGAAGCGUUCACGUCGCGGCCCCUGUCAGAUUCUAGUCAAUCUGCGAAUUCUGCUGU" has self-cleavage reaching or exceeding 0.3?
Response: 1 (yes)

Query: hey, is self-cleavage for this one >= 0.3? "GGGGGCCACAGCAGAAGCGUUCACGUCGCGGCCCCUCUCAGAUUCUGGUGAAUCUGCGAGUUCUGCUGU"
Response: 0 (no)

Query: Given the entry "GGGGGCCACAGCAGAAGCGUUCACGUCGCGGCCCCUGUCAGAUUCCGGUGAAUCUGGGAAUUCUGCUGU" , answer whether its self-cleavage meets or surpasses 0.3.
Response: 1 (yes)

Query: Quick check, self-cleavage >= 0.3? "GGGGGCCACAGCAGAAGCGUUCACGUCGCGGGCCCUGUCAGAUUCUGGUAAAUCUGCGAAUUCUGCUGU"
Response: 1 (yes)

Query: Record "GGGGGCCACAGCAGAAGCGUUCACGUCGCGACCCCUGUCAGAUUCUGGUGAAUCUGCGAAUUCUGCUGA" ; criterion: self-cleavage no lower than 0.3. Met?
Response: 1 (yes)

Query: Would you say "GGGAGCCACAGCAGAAGCGUUCACGUGGCGGCCCCUGUCAGAUUCUGGUGAAUCUGCGAAUUCUGCUGU" shows self-cleavage at minimum 0.3?
Response: 0 (no)

Query: hey, is self-cleavage for this one >= 0.3? "GGGGGCCACAGCAGAAGCGUUCACGUAGCGGCCCCUGUCAGAUUCUGGUGAAUCUGCGAAUUGUGCUGU"
Response: 0 (no)

Query: Reported self-cleavage reaches at least 0.3 for "GGGGGCCACAGCAGAAGCGUUCACGUCGCGGCCCCUGUCAGAUUCUGGUGAAUCUGCGAAUGCUUCUGU" ?
Response: 1 (yes)

Query: Determine whether this variant has self-cleavage no lower than 0.3: "GGGGGCCACAGCAGAAGCGUUCACGUCGCGGCCCCUGUCAGCUUCUGGUGAAUCUGCGAAUUUUGCUGU"
Response: 1 (yes)

Query: # check: self-cleavage of "GGUGGCCACAGCAGAAGCGUUCACGUCGCGGCCCUUGUCAGAUUCUGGUGAAUCUGCGAAUUCUGCUGU" is greater than or equal to 0.3
Response: 0 (no)

Query: I'd appreciate it if you could say whether "GGGGGCCACAGCAGAAGCGUUCACGUCGUAGCCCCUGUCAGAUUCUGGUGAAUCUGCGAAUUCUGCUGU" has self-cleavage at least equal to 0.3.
Response: 0 (no)

Query: Please tell me: is the variant "GGGGGCCACAGCAGAAGCGUUCACGUCGCGGCCCCUGUCAGAUUCUGGUGAGUCCGCGAAUUCUGCUGU" at or over 0.3 in terms of self-cleavage?
Response: 1 (yes)

Query: I'd appreciate it if you could say whether "GGGGGCCACUGCAGAAGCGUUCACGUCGCGGCCCCUGUCAGAUUCUGGUGAAUCUGCGAAUUCUGAUGU" has self-cleavage at least equal to 0.3.
Response: 1 (yes)

Query: Hi team, for "GGGGGCCACAGCAGAAGCGUUCACGUCGCGGCCCCUGUCAGUUUCUGGAGAAUCUGCGAAUUCUGCUGU" , is the recorded self-cleavage at or above 0.3?
Response: 1 (yes)

Query: Does the reported self-cleavage for "GGGGGCCACAGCAGGAGCGUUCACGUCGCGGCCCCUGUGAGAUUCUGGUGAAUCUGCGAAUUCUGCUGU" fall at or above the 0.3 mark?
Response: 1 (yes)

Query: Please indicate if the recorded self-cleavage for "GGGGGCCACAGCAGAAGCGUUCACGUCGCGGCCCCUGUCAGUUUCUGGUGAAUCUGCGAAUUCUGCUGG" meets or exceeds 0.3.
Response: 1 (yes)

Query: Is self-cleavage for "GGGGGCCACAGCUGAAGCGUUCACGUCGCGGCCCCUGUCAGCUUCUGGUGAAUCUGCGAAUUCUGCUGU" at or above 0.3?
Response: 1 (yes)

Query: Confirm if self-cleavage reported for the variant "GGGGGCCACAGCAAAAGCGUUCACGUCGCGGCCCCUUUCAGAUUCUGGUGAAUCUGCGAAUUCUGCUGU" is 0.3 or above.
Response: 0 (no)

Query: Textbook exercise: given the entry "GGGGGCCGCAGCAGAAGCGUUCACGUCGCGGCCCCUGUCAGAUUCUGGUUAAUCUGCGAAUUCUGCUGU" , state whether its self-cleavage is greater than or equal to 0.3.
Response: 1 (yes)

Query: Decide: self-cleavage of "GGGGGCCACAGCAGAAGCGUUCACGUCGCGGCCCCUGUCAGGUUCUGGUGGAUCUGCGAAUUCUGCUGU" >= 0.3?
Response: 1 (yes)

Query: Decide: is the reported value of self-cleavage for "GGGGGCCACAGCAGAAGCGUUCACGUCCCGGCCCCUGUCAGAUGCUGGUGAAUCUGCGAAUUCUGCUGU" equal to or greater than 0.3?
Response: 0 (no)

Query: Quick check: does "GGGGGCCACAGCAGAGGCGUUCACGUCGCGGCCCCUGUCAGAUUCUGGUGAAUCUGCGAGUUCUGCUGU" have self-cleavage greater than or equal to 0.3?
Response: 1 (yes)

Query: Determine whether this variant has self-cleavage no lower than 0.3: "GGGGGCCACAGCAGAAGCGUUCACGUCGCGGCCCCUGUCAGAUUCUGGUGAAUAUGCGAAUUCGGCUGU"
Response: 1 (yes)

Query: I'd appreciate it if you could say whether "GGGGGCCACUGCAGAAGCGUUCACGUCGCGGCCCCUGUCAGAUUCUGGUGAAUCUGCGAAUUCUGCAGU" has self-cleavage at least equal to 0.3.
Response: 1 (yes)

Query: Assess whether reported self-cleavage for "GGGGGCCACAGCAGAAGCGUGCACGUCGCGGCCCGUGUCAGAUUCUGGUGAAUCUGCGAAUUCUGCUGU" sits at 0.3 or higher.
Response: 0 (no)

Query: Reported self-cleavage reaches at least 0.3 for "GGUGGCCACAGCAGAAGCGUUCCCGUCGCGGCCCCUGUCAGAUUCUGGUGAAUCUGCGAAUUCUGCUGU" ?
Response: 0 (no)

Query: Hello, I need to know if "GGGGGCCACAGCAGAAGCGUUCACGUCGCGGCCCCUGUCAGAUUCUGGUGGAUCUGCGAAUUCUGAUGU" has measured self-cleavage not below 0.3. Thanks!
Response: 1 (yes)

Query: Please indicate if the recorded self-cleavage for "GGGGCCCACAGCAGAAGCGUUCACGUCGCGGCCCCUGUCAGAUUCUGUUGAAUCUGCGAAUUCUGCUGU" meets or exceeds 0.3.
Response: 0 (no)

Query: Identify whether the reported self-cleavage of the following variant is 0.3 or greater: "GGGGGCCACAGCAGAAGCGUUCACGUCGCGGCCCCUGUCAGAUUUUGGUGAAUCUGCGAAUUUUGCUGU"
Response: 1 (yes)

Query: Reported self-cleavage at or above 0.3? "GGGGGCCACAGCAGAAGCGUUCAUGUCGCGGCCCCUGUCAGAUUCUGGUGAAUCUGCGAAUUCUCCUGU"
Response: 1 (yes)

Query: // inclusive: self-cleavage at least 0.3? input: "GAGGGCCACAGCAGAAGCGUUCAUGUCGCGGCCCCUGUCAGAUUCUGGUGAAUCUGCGAAUUCUGCUGU"
Response: 0 (no)

Query: API: above_or_equal(metric=self-cleavage, cutoff=0.3) for item "GGGGGCCACAGCAGAAGCGUUCACGUGGUGGCCCCUGUCAGAUUCUGGUGAAUCUGCGAAUUCUGCUGU"
Response: 0 (no)

Query: Textbook exercise: given the entry "GGGGGCCACAGCAGAAGCGUUCACGUCGCGGCCCCUGUCAGAUUCCGGUGAAUUUGCGAAUUCUGCUGU" , state whether its self-cleavage is greater than or equal to 0.3.
Response: 1 (yes)

Query: Decide: is the reported value of self-cleavage for "GGGGGCCACAGGAGAAGCGUUCACGUCGCGGCCCCUGCCAGAUUCUGGUGAAUCUGCGAAUUCUGCUGU" equal to or greater than 0.3?
Response: 1 (yes)

Query: Hi team, for "GGGGGCCACAGCAGAAGCGUUCACGUCGCGGCCCCUGUAAGAUUCUGGUGAAUCUGCGAAUUCUGCUGA" , is the recorded self-cleavage at or above 0.3?
Response: 1 (yes)

Query: Could you please find out whether "GGGGGCCACAGCAGAAGCGUUCACGUCGCGGCCCCUGUCAGAUUCAGGUGGAUCUGCGAAUUCUGCUGU" has self-cleavage that meets 0.3 or exceeds it?
Response: 1 (yes)

Query: In plain terms: is recorded self-cleavage at least 0.3 for "GGGGGCCACAGCAGAAGCGUUCACGUCGCGGCCCCUGUGAGAUUCUGCUGAAUCUGCGAAUUCUGCUGU" ?
Response: 1 (yes)

Query: Has "GGGGGCCCCAGCAGAAGCGUUCACGCCGCGGCCCCUGUCAGAUUCUGGUGAAUCUGCGAAUUCUGCUGU" a recorded self-cleavage greater than or equal to 0.3?
Response: 1 (yes)

Query: Form field: self-cleavage at least 0.3? Entry: "GGGGGCCACAGCAGAAGCGUUCACGUCGCGGCCCCUGUCAGAUUCUGGUGAAUCUGCAAAUUCUGCUUU"
Response: 1 (yes)

Source: the RNAGym collection of RNA variant scans (doi:10.7554/elife.80360)
